Origin of values: paper PMC9482650

Target: IL16_4, Q14005
Sequence (Q14005 1229-1329): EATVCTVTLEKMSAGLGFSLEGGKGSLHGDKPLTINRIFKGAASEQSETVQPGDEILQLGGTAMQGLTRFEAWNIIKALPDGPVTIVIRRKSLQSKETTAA
Experiment: holdup assay
Parameters: key: below the threshold = too weak to quantify, mostly under pKd 3.1 to 4
Details: plain residues with an end cap or a label only (N-terminal biotin on a linker: ado-ado)
quantity-measured: pKd

[[record]]
binder = "EVEEFPETSV [TRPV3, Q8NET8]"
result = "below the threshold"

[[record]]
binder = "DTTVPESEDL [MYOZ2, Q9NPC6]"
result = "below the threshold"

[[record]]
binder = "LSEFKAMDSI [CTNNA1, P35221]"
result = "below the threshold"

[[record]]
binder = "RKPKPSSSCC [RAB9A, P51151]"
result = "below the threshold"

[[record]]
binder = "IKAIVDLTGL [TRAF2, Q12933]"
result = "below the threshold"


input: Name the recorded pKd for YNNCLEILRV [DCAF7, P61962] .
output: below the threshold

input: Same for TASPAKETSF [SLC2A7, Q6PXP3]
output: below the threshold

input: Same for QMNQTLPVQV [EPHB3, P54753]
output: 3.77
